- targetOrTestSystem: SALL4 ZFC4 R900W (HT-SELEX) (Mus musculus, UniProt Q8BX22 870-940, R900W)
- Sequence: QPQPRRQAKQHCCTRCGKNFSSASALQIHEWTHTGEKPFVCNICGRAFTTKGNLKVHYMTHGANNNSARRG
- assayProcedure: HT-SELEX; high values mean tight binding
- condition: protein: recombinant; vector His6-GST; dsDNA, one strand shown
propertyName: binding signal (fold-change vs cycle 0)
Give bare numbers, in fold-change vs cycle 0.

Before answering, review these 2 worked examples.
{"columns": ["sequenceText", "binding signal / fold-change vs cycle 0"],
 "data": [
  ["CGTAGC", 0.356],
  ["ACCCGT", 0.5]
]}

For every item in the list below, what is its measured binding signal?
1. ACAGCC
2. GGCGGA
3. CGCTAA
4. GCTAGA
5. ACCAGA
6. AGTGGC
7. CTACGA

**Result**
0.328
0.12
0.562
0.746
0.921
0.299
0.762

Dear colleague, could you send me binding signal for each of the items below? Thanks.
1. AGCATA
2. CACCCC
3. ACGAGA
4. CAGAGA
5. AGTTAA
6. CGTACA

**Result**
1: 1.27; 2: 0.309; 3: 0.922; 4: 0.92; 5: 2.13; 6: 0.729

Consider the following items and state reported binding signal for each.
1. AGTGTA
2. ATGAAT
3. GGACAC
4. AGCCCC
5. ATTCTA
6. ATCGAA
7. GGTAAC
8. AGGCGA

**Result**
1: 1.43; 2: 2.16; 3: 0.454; 4: 0.191; 5: 2.07; 6: 1.16; 7: 1.08; 8: 0.276

Quick batch: binding signal for everything below.
1. GGTATA
2. ATATCG
3. CGGGGC
4. ATCGAT
5. CCAGTC
6. AAATCA
7. AACATC

**Result**
1. 1.34
2. 1.15
3. 0.0617
4. 1.21
5. 0.533
6. 1.8
7. 1.37

====

- targetOrTestSystem: SALL4 ZFC4 WT (HT-SELEX) (Mus musculus, UniProt Q8BX22 870-940)
- Sequence: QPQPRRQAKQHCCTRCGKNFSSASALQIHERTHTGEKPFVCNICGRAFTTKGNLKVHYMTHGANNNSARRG
- assayProcedure: HT-SELEX; high values mean tight binding
- condition: protein: recombinant; vector His6-GST; dsDNA, one strand shown
Hi there, I'd appreciate the recorded log10(binding signal) for every entry that follows.
Field: value | Transform: log10 | Quantity: binding signal | Unit: fold-change vs cycle 0

These solved cases illustrate the format of a correct answer.
{"columns": ["sequenceText", "propertyName", "valueReported"],
 "data": [
  ["CGTTCA", "log10(binding signal)", -0.15],
  ["AGGTAT", "log10(binding signal)", 0.16],
  ["AATGCC", "log10(binding signal)", -0.30]
]}

Dear colleague, could you send me log10(binding signal) for each of the items below? Thanks.
1. CCAAGG
2. GACTAC
3. ACTCCA

**Result**
1: -0.34; 2: -0.11; 3: -0.05

Report log10(binding signal) for every entry below.
1. ATCGAA
2. AAATTC
3. CTTAGC
4. GTCAAA
5. GAGCTC
6. AACACC

**Result**
1. 0.07
2. 0.25
3. -0.14
4. 0.00
5. -0.47
6. -0.13
